Attribution: ChEMBL document CHEMBL3808308

Experiment: Cytotoxicity against human K562 cells assessed as decrease in cell viability after 24 hrs by cell titer-glo luminescence assay
Assay type: cell-based
Settings: read-out: ED50
measuredParameter: CC50 at 24 h (µM)

                               samplesmiles  resultunits  measuredresult
0  CS(=O)(=O)c1ccc(-c2cnc(N)c(C(=O)Nc3ccccc3)n2)cc1           µM             449

* * *

# reported CC50 at 48 h; entries follow
Assay: Cytotoxicity against human K562 cells assessed as decrease in cell viability after 48 hrs by cell titer-glo luminescence assay
Type: cell-based
Conditions: read-out: ED50
measuredParameter: CC50 at 48 h

In [3]: df
Out[3]:
                               samplesmiles  measuredparameter  measuredresult
0  Cn1c(=O)n(-c2ccc(C(C)(C)C#N)cc2)c2c3cc(-c4cnc5ccccc5c4)ccc3ncc21       CC50 at 48 h         48.9 nM
1               O=C(CCCCCCC(=O)Nc1ccccc1)NO       CC50 at 48 h         1250 nM
2  CS(=O)(=O)c1ccc(-c2cnc(N)c(C(=O)Nc3ccccc3)n2)cc1       CC50 at 48 h        71000 nM
